The values you see were collected from paper PMC8878324.

Hi! I'm sharing some MIC results obtained with Staphylococcus aureus ATCC 25923.
Answers are plain numbers, in µg/mL.

Before answering, review these 3 worked examples.
1) CCCn1cc([C+](c2cn(CCC)c3ccccc23)c2cn(C3=C(N)C(=O)NC3=O)c3ccccc23)c2ccccc21.[Cl-]: 0.5
2) OCCCCCn1cc([C+](c2cn(CCCCCO)c3ccccc23)c2cn(CCCCCO)c3ccccc23)c2ccccc21.[Cl-]: 2
3) CCCn1cc([C+](c2cn(CCC)c3ccccc23)c2cn(C3=C(N(C)C)C(=O)NC3=O)c3ccccc23)c2ccccc21: 0.13

Give MIC for all compounds that follow.
1. CCCn1cc([C+](c2cn(CCC)c3ccccc23)c2cn(CCC)c3ccccc23)c2ccccc21.[Cl-]
2. C[C@H]1COc2c(N3CCN(C)CC3)c(F)cc3c(=O)c(C(=O)O)cn1c23 [Levofloxacin, levofloxacin, reference compound]

Output:
1: 0.25; 2: 0.25

* * *

Hi! I'm sharing some MIC results obtained with Aspergillus niger ATCC 16404.
One number for each entry, in µg/mL.

Give MIC for all molecules that follow.
1. C[C@@H]1[C@H](O)[C@@H](C)/C=C/C=C/C=C/C=C/C=C/C=C/C=C/[C@H](O[C@@H]2O[C@H](C)[C@@H](O)[C@H](N)[C@@H]2O)C[C@@H]2O[C@](O)(C[C@@H](O)C[C@@H](O)[C@H](O)CC[C@@H](O)C[C@@H](O)CC(=O)O[C@H]1C)C[C@H](O)[C@H]2C(=O)O [Amphotericin B, amphotericin B, reference compound]
2. CCCn1cc([C+](c2cn(CCC)c3ccccc23)c2cn(CCC)c3ccccc23)c2ccccc21.[Cl-] [Compound 4]

Output:
1
2

* * *

Hi! I'm sharing some MIC results obtained with Enterococcus faecium 569.

Give MIC for all molecules that follow.
1. CCCn1cc([C+](c2cn(CCC)c3ccccc23)c2cn(C3=C(N)C(=O)NC3=O)c3ccccc23)c2ccccc21.[Cl-]
2. CCCn1cc([C+](c2cn(CCC)c3ccccc23)c2cn(CCC)c3ccccc23)c2ccccc21.[Cl-]

Output:
8 µg/mL
1 µg/mL

* * *

Hi! I'm sharing some MIC results obtained with Staphylococcus aureus ATCC 3798.
Answers are plain numbers, in µg/mL.

Before answering, review these 4 worked examples.
1. CCCn1cc([C+](c2cn(CCC)c3ccccc23)c2cn(C3=C(N(C)C)C(=O)NC3=O)c3ccccc23)c2ccccc21 [Compound 3]: 0.13
2. OCCCCCn1cc([C+](c2cn(CCCCCO)c3ccccc23)c2cn(CCCCCO)c3ccccc23)c2ccccc21.[Cl-] [Compound 1]: 2
3. C[C@H]1COc2c(N3CCN(C)CC3)c(F)cc3c(=O)c(C(=O)O)cn1c23 [Levofloxacin, levofloxacin, reference compound]: 32
4. CCCn1cc([C+](c2cn(CCC)c3ccccc23)c2cn(C3=C(N)C(=O)NC3=O)c3ccccc23)c2ccccc21.[Cl-] [Compound 2]: 0.25

Continue with the molecule presented below.
Input: Please look at this molecule and report its MIC: CCCn1cc([C+](c2cn(CCC)c3ccccc23)c2cn(CCC)c3ccccc23)c2ccccc21.[Cl-] [Compound 4]
Output: 0.25

* * *

Hi! I'm sharing some MIC results obtained with Aspergillus niger ATCC 16404.
One number for each entry, in mg/L.

1) CCCn1cc([C+](c2cn(CCC)c3ccccc23)c2cn(C3=C(N(C)C)C(=O)NC3=O)c3ccccc23)c2ccccc21: 2

Continue with the compound presented below.
Input: Please look at this compound and report its MIC: CCCn1cc([C+](c2cn(CCC)c3ccccc23)c2cn(C3=C(N)C(=O)NC3=O)c3ccccc23)c2ccccc21.[Cl-]
Output: 8

* * *

Hi! I'm sharing some MIC results obtained with Staphylococcus aureus 5.
Answers are plain numbers, in µg/mL.

Give MIC for all molecules that follow.
1. CCCn1cc([C+](c2cn(CCC)c3ccccc23)c2cn(C3=C(N)C(=O)NC3=O)c3ccccc23)c2ccccc21.[Cl-]
2. CCCn1cc([C+](c2cn(CCC)c3ccccc23)c2cn(CCC)c3ccccc23)c2ccccc21.[Cl-]
3. C[C@H]1COc2c(N3CCN(C)CC3)c(F)cc3c(=O)c(C(=O)O)cn1c23 [Levofloxacin, levofloxacin, reference compound]

Output:
0.25
0.5
0.25

Give MIC for all molecules that follow.
1. OCCCCCn1cc([C+](c2cn(CCCCCO)c3ccccc23)c2cn(CCCCCO)c3ccccc23)c2ccccc21.[Cl-]
2. CCCn1cc([C+](c2cn(CCC)c3ccccc23)c2cn(C3=C(N(C)C)C(=O)NC3=O)c3ccccc23)c2ccccc21

Output:
1. 4
2. 0.5

* * *

I'd appreciate it if you could supply MIC values for the items below.
# System: Staphylococcus haemoliticus 585
# measurement-protocol: MIC by broth microdilution
# Assay type: cell-based
# measurement-setup: Staphylococcus haemoliticus 585
Numbers only, in mg/L.

1. OCCCCCn1cc([C+](c2cn(CCCCCO)c3ccccc23)c2cn(CCCCCO)c3ccccc23)c2ccccc21.[Cl-] [Compound 1]: 4
2. CCCn1cc([C+](c2cn(CCC)c3ccccc23)c2cn(C3=C(N)C(=O)NC3=O)c3ccccc23)c2ccccc21.[Cl-] [Compound 2]: 2
3. CCCn1cc([C+](c2cn(CCC)c3ccccc23)c2cn(CCC)c3ccccc23)c2ccccc21.[Cl-] [Compound 4]: 0.5

Continue with the molecule presented below.
Input: Specify the recorded MIC for C[C@H]1COc2c(N3CCN(C)CC3)c(F)cc3c(=O)c(C(=O)O)cn1c23 [Levofloxacin, levofloxacin, reference compound] , system: Staphylococcus haemoliticus 585.
Output: 0.5

* * *

Hi! I'm sharing some log10 MIC results obtained with Staphylococcus aureus ATCC 700699.
Recorded MIC (log10, µg/mL)

1. OCCCCCn1cc([C+](c2cn(CCCCCO)c3ccccc23)c2cn(CCCCCO)c3ccccc23)c2ccccc21.[Cl-]: 0.30
2. CCCn1cc([C+](c2cn(CCC)c3ccccc23)c2cn(C3=C(N)C(=O)NC3=O)c3ccccc23)c2ccccc21.[Cl-]: -0.30
3. C[C@H]1COc2c(N3CCN(C)CC3)c(F)cc3c(=O)c(C(=O)O)cn1c23 [Levofloxacin, levofloxacin, reference compound]: 1.20
4. CCCn1cc([C+](c2cn(CCC)c3ccccc23)c2cn(C3=C(N(C)C)C(=O)NC3=O)c3ccccc23)c2ccccc21: -0.89

Continue with the compound presented below.
Input: Please look at this compound and report its log10 MIC: CCCn1cc([C+](c2cn(CCC)c3ccccc23)c2cn(CCC)c3ccccc23)c2ccccc21.[Cl-]
Output: -0.60

* * *

# measurement-protocol: Acute toxicity study, intravenous
# Format: in vivo
# measurement-setup: female, SHK, mouse, in vivo; mice, single intravenous
test-readout: LD50 (mg/kg)
One number for each entry, in mg/kg.

1. CCCn1cc([C+](c2cn(CCC)c3ccccc23)c2cn(C3=C(N(C)C)C(=O)NC3=O)c3ccccc23)c2ccccc21: 24.2
2. CCCn1cc([C+](c2cn(CCC)c3ccccc23)c2cn(C3=C(N)C(=O)NC3=O)c3ccccc23)c2ccccc21.[Cl-]: 41.8

Input: Please look at this molecule and report its LD50: OCCCCCn1cc([C+](c2cn(CCCCCO)c3ccccc23)c2cn(CCCCCO)c3ccccc23)c2ccccc21.[Cl-]
Output: 26.2

* * *

# measurement-protocol: Cytotoxic activity, MTT assay
# Type: cell-based, human
# measurement-setup: human, HPF-hTERT
I'd appreciate it if you could supply IC50 at 72 h values for the items below.
One number for each entry, in µg/mL.

Before answering, review these 4 worked examples.
1) CCCn1cc([C+](c2cn(CCC)c3ccccc23)c2cn(C3=C(N)C(=O)NC3=O)c3ccccc23)c2ccccc21.[Cl-]: 2.77
2) C[C@@H]1[C@H](O)[C@@H](C)/C=C/C=C/C=C/C=C/C=C/C=C/C=C/[C@H](O[C@@H]2O[C@H](C)[C@@H](O)[C@H](N)[C@@H]2O)C[C@@H]2O[C@](O)(C[C@@H](O)C[C@@H](O)[C@H](O)CC[C@@H](O)C[C@@H](O)CC(=O)O[C@H]1C)C[C@H](O)[C@H]2C(=O)O [Amphotericin B, amphotericin B, reference compound]: 0.7
3) CCCn1cc([C+](c2cn(CCC)c3ccccc23)c2cn(C3=C(N(C)C)C(=O)NC3=O)c3ccccc23)c2ccccc21: 0.57
4) CCCn1cc([C+](c2cn(CCC)c3ccccc23)c2cn(CCC)c3ccccc23)c2ccccc21.[Cl-]: 0.07

Continue with the compound presented below.
Input: Please look at this compound and report its IC50 at 72 h: OCCCCCn1cc([C+](c2cn(CCCCCO)c3ccccc23)c2cn(CCCCCO)c3ccccc23)c2ccccc21.[Cl-]
Output: 12.6

* * *

# Tested on: Enterococcus faecium 569
I'd appreciate it if you could supply MIC values for the items below.
Answers are plain numbers, in µg/mL.

1) OCCCCCn1cc([C+](c2cn(CCCCCO)c3ccccc23)c2cn(CCCCCO)c3ccccc23)c2ccccc21.[Cl-]: 8

Input: Specify the recorded MIC for C[C@H]1COc2c(N3CCN(C)CC3)c(F)cc3c(=O)c(C(=O)O)cn1c23 [Levofloxacin, levofloxacin, reference compound] , system: Enterococcus faecium 569.
Output: 1
